- assay_comment: osmotic lysis modulators in infected erythrocytes, primary screen, PSAC antagonist project, cell-based, P. falciparum Indochina, OD700, 3 h (AID 1156)
- applied_conditions: higher = more signal, called active from +8 up or from −8 down
Exercise: for every item that follows, state its recorded z-score.
One number for each entry.

In [3]: df
Out[3]:
                                   molecule  numeric_value
0  O=C(NCCN1CCOCC1)C1N=C(c2ccc(OCCCO)cc2)N(c2ccccc2)O1 (centres undefined)         -0.625
1  C#C[C@H](O[Si](C#Cc1ccc(Oc2ccccc2)cc1)(C(C)C)C(C)C)c1ccccc1          -2.03
2  CC(C)NC(=O)[C@@]1(c2ccc([N+](=O)[O-])cc2)CC(=O)N(C2CCCCC2)[C@@H]1c1ccc(CO)cc1I           1.07

# next molecule below
Task item: Looking for the measured z-score of `O=C1N(Cc2ccccc2)c2ccccc2[C@@H]2OC(c3ccc(OCCCO)cc3)=N[C@]12CCS(=O)(=O)c1ccccc1` , can you help?
Reply: 1.79

* * *

- target_under_test: Torsin-1A-interacting protein 2 (Homo sapiens)
- assay_comment: LULL1 binders on small-molecule microarray, primary screen, cell lysate, human LULL1 lysate, 635/667 nm fluorescence (AID 1092);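 also: probe is lysate of COS7 cells overexpressing human LULL1; score merges per-feature 667 nm fluorescence with signal-to-noise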
- applied_conditions: hLULL1 lysate binding, 635 nm fluorescence, higher = more signal
Note to self: values exactly at 3 are satisfied. So composite z-score at or above 3 is satisfied, below is not satisfied.

compound	target_under_test	classification
CC(C)=CCN[C@H](CO)c1ccccc1	Torsin-1A-interacting protein 2 (Homo sapiens)	not satisfied
CN(C)CCCCCCNC(=O)[C@H]1C[C@H]2C(=O)N[C@@H](CCCCN)C(=O)N2[C@H]1c1cccc(OCCO)c1	Torsin-1A-interacting protein 2 (Homo sapiens)	satisfied
C=CCOC(=O)[C@@H]1[C@H]2C(=O)O[C@H](c3ccccc3)[C@H](c3ccccc3)N2[C@H](c2ccc(OCCOC(=O)[C@H]3C[C@H]4C(=O)N5CCC[C@H]5C(=O)N4[C@H]3c3ccc(O)cc3)cc2)[C@@]12C(=O)Nc1ccc(I)cc12	Torsin-1A-interacting protein 2 (Homo sapiens)	not satisfied
CC[C@@H]1C=C(C(=O)O)[C@H](c2ccc(Br)cc2)N1S(=O)(=O)c1ccc(C)cc1	Torsin-1A-interacting protein 2 (Homo sapiens)	not satisfied

Task item: Threshold query (composite z-score >= 3) on C=CCC(OC(C)=O)[C@@H]1[C@@H](N(Cc2ccc(-c3ccccc3)cc2)C(=O)c2cccc3ccccc23)c2cc(OCCCO)ccc2N1C(=O)c1ccc(-c2ccccc2)cc1 (stereo not given in full)
Reply: not satisfied

Task item: Check this compound for composite z-score at or above 3: `CC(C)[Si](C#Cc1ccc(Oc2ccccc2)cc1)(O[Si](C#Cc1ccc(Oc2ccccc2)cc1)(C(C)C)C(C)C)C(C)C`
Reply: not satisfied

Task item: Determine whether this compound has composite z-score no lower than 3: `COC(=O)c1c(CC[C@@H](CO)NC(=O)NCCn2cc(C3(O)CCCC3)nn2)oc(C(C)=O)c1C(=O)OC`
Reply: satisfied

Task item: Hello, I need to know if `CC(C)CNC(=O)[C@@]1(Cc2ccccc2I)c2ccccc2C(=O)N(C2CCCCC2)[C@H]1c1ccc(CO)cc1` has measured composite z-score not below 3. Thanks!
Reply: not satisfied

* * *

- assay_comment: modulators of S6 phosphorylation in cells, primary screen, cell-based, A549, cytoblot, luminescence, serum-stimulated (AID 1158);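 also: serum-stimulated A549 lung adenocarcinoma cells; signal is phosphorylated S6 detected by cytoblot immunostaining with HRP secondary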
- applied_conditions: A549 phospho-S6 cytoblot, 5 h, higher = more signal
experimental_endpoint: z-score
One number for each entry.

smiles_str	experimental_endpoint	numeric_value
O=C(N1CCCCC1)[C@]1(Cc2ccccc2)N=C(c2ccc(OCCCO)cc2)O[C@@H]1c1ccccc1	z-score	2.33

Give z-score for each listed item.
1. C[N+](C)(C)CCCCNC(=O)[C@@H]1C[C@@H]2C(=O)N[C@@H](Cc3ccccc3)C(=O)N2[C@@H]1c1cccc(OCCO)c1
2. COCCOC(=O)N1C(=O)[C@@]2(c3ccccc31)[C@H](C(=O)N1CCc3cc(OC)c(OC)cc3C1)[C@H]1C(=O)O[C@H](c3ccccc3)[C@H](c3ccccc3)N1[C@@H]2c1ccc(OCCO)cc1
3. COC(=O)C[C@H]1O[C@]2(C(=O)N(C)c3ccccc32)[C@@H](C)[C@@H]1[Si](C)(C)F

Reply:
[1.91, 0.0824, 1.26]

Please state, for each entry, its recorded z-score.
1. COCCOC(=O)N1C(=O)[C@@]2(c3cc(C#CCNC(N)=O)ccc31)[C@H](C(=O)N1CCN(c3ncccn3)CC1)[C@H]1C(=O)O[C@H](c3ccccc3)[C@H](c3ccccc3)N1[C@@H]2c1ccc(OCCO)cc1
2. COc1ccc(CCNC(=O)[C@@H]2c3ccccc3C(=O)N(Cc3ccccc3Cl)[C@H]2c2ccc(CO)cc2)cc1

Reply:
1. -0.319
2. -0.144

* * *

- target_under_test: Fibroblast growth factor 2 (Homo sapiens) (UniProt P09038)
- Sequence (P09038 whole entry, looked up): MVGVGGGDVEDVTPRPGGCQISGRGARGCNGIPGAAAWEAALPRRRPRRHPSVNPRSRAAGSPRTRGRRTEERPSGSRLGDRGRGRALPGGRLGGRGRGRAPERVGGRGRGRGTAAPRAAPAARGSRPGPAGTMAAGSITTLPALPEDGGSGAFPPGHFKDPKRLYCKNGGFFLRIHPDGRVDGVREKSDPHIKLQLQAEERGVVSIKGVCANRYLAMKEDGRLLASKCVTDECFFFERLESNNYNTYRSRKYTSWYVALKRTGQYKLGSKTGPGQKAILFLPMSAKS
- assay_comment: FGF2 binders on small-molecule microarrays, primary screen, biochemical, small-molecule microarray, 635/667 nm fluorescence (AID 1133)
- applied_conditions: small-molecule microarray binding, FGF2, fluorescence 635/667; higher = more signal
Rule: composite z-score under 0.7 gives No, otherwise Yes.

molecule	target_under_test	classification
C=C(C)[C@@H]1CC=C(C(O)C2C=CC3C(=O)N(C)C(=O)C3N2Nc2ccccc2)CC1 (some centres not stated)	Fibroblast growth factor 2 (Homo sapiens) (UniProt P09038)	Yes
CCCC[C@@H]1C[C@H]1[C@@H](NC(=O)C(C)(C)C)c1ccc(C(F)(F)F)cc1	Fibroblast growth factor 2 (Homo sapiens) (UniProt P09038)	No
CC(C)C[C@@H]1NC(=O)[C@@H]2C[C@H](C(=O)O)[C@H](c3cccc(OCCO)c3)N2C1=O	Fibroblast growth factor 2 (Homo sapiens) (UniProt P09038)	Yes
Cc1ccc(S[C@]2(C(=O)NCCCN(C)C)CC(=O)N(Cc3cc(C(F)(F)F)cc(C(F)(F)F)c3)[C@@H]2c2ccc(CO)cc2I)cc1	Fibroblast growth factor 2 (Homo sapiens) (UniProt P09038)	No
COC(=O)C(CC#Cc1ccc2c(c1)[C@]1(C(=O)N2)[C@H](c2ccc(OCCO)cc2)N2[C@H](c3ccccc3)[C@H](c3ccccc3)OC(=O)[C@H]2[C@@H]1C(=O)N1CCc2cc(OC)c(OC)cc2C1)C(=O)OC	Fibroblast growth factor 2 (Homo sapiens) (UniProt P09038)	Yes

Task item: hey, is composite z-score for this one >= 0.7? `COc1ccc(CCNC(=O)[C@@]2(Sc3ccc(C)cc3)CC(=O)N(C(C)C)[C@@H]2c2ccc(CO)cc2I)cc1`
Reply: No

Task item: Determine whether measured composite z-score meets or exceeds 0.7 for `[N-]=[N+]=Nc1ccccc1[C@@H]1OC(c2ccc(OCCCO)cc2)=N[C@]1(Cc1ccccc1)C(=O)N1CCOCC1`
Reply: Yes

* * *

- Test system: Noggin (protein binding on small-molecule microarray)
- assay_comment: Noggin binders on small-molecule microarray, primary screen, biochemical, 635/667 nm fluorescence (AID 1095);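 also: score merges 667 nm feature fluorescence with signal to noise over triplicate slides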
- applied_conditions: 635 nm fluorescence, higher = more signal
experimental_endpoint: composite z-score
Numbers only.

Please review the entries below; each comes with its answer.
compound	target_under_test	numeric_value
C=CCC(OC(C)=O)[C@@H]1[C@@H](N(Cc2ccc(-c3ccccc3)cc2)C(=O)c2cccc3ccccc23)c2cc(OCCCO)ccc2N1C(=O)c1ccc(-c2ccccc2)cc1 (stereo partly drawn)	Noggin (protein binding on small-molecule microarray)	0.0623
CC(C)OC(=O)C=C1C[C@@H](c2ccccn2)O[C@@H](c2ccccn2)O1	Noggin (protein binding on small-molecule microarray)	1.25
COCCOC(=O)N1C(=O)[C@@]2(c3cc(C#Cc4ccc(OC)cc4)ccc31)[C@H](c1ccc(OCCO)cc1)N1[C@H](c3ccccc3)[C@H](c3ccccc3)OC(=O)[C@H]1[C@@H]2C(=O)N1CCN(c2ncccn2)CC1	Noggin (protein binding on small-molecule microarray)	1.06
COc1cc2c(cc1O)C(c1cccs1)N(C)CC2 (stereo not drawn)	Noggin (protein binding on small-molecule microarray)	-0.428
NCCCCCNC(=O)[C@@H]1C[C@@H]2C(=O)N[C@@H](Cc3ccccc3)C(=O)N2[C@@H]1c1ccc(O)cc1	Noggin (protein binding on small-molecule microarray)	0.923
CCCCCN1CC=CC23O[C@@H]4/C=C\CCC(C)OC(=O)C4[C@H]2C(=O)N(C(C)CO)[C@@H]3C1=O (stereo partly drawn)	Noggin (protein binding on small-molecule microarray)	0.0805
CC1CC/C=C\[C@H]2OC34C=CCN(Cc5ccccc5)C(=O)[C@H]3N(CCCO)C(=O)[C@@H]4C2C(=O)O1 (stereo partly drawn)	Noggin (protein binding on small-molecule microarray)	-1.12

We next turn to a different compound, shown below.
Task item: API: value(readout= composite z-score, system= Noggin (protein binding on small-molecule microarray), query= `Cc1nc2cc(Br)ccc2c(=O)o1` )
Reply: 0.198
